Test system: SH-SY5Y cells
protocol-text: AK (adenylate kinase) release ToxiLight cytotoxicity assay; further: reference of the scale not given here
cond: PKIS2 primary screening
measured-quantity: AK
Give bare numbers.

Below, each entry is followed by its recorded AK result.
| compound | AK |
| --- | --- |
| COc1cc(Nc2ccnc3cc(-c4ccncc4)ccc23)cc(OC)c1OC.Cl [UNC10225049A] | 108.07 |
| Cc1nccc(-c2c(-c3ccc(F)cc3)ncn2CCCN2CCOCC2)n1.Cl [UNC10225493A] | 100.35 |
| Nc1nc(Nc2ccccc2)cc(-c2ccc3c(N)n[nH]c3c2)n1 [GSK2225749] | 135.05 |
| Cn1cc(-c2ccc3c(c2)CCN3C(=O)Cc2cccc(F)c2)c2c(N)ncnc21 [UNC10225297A] | 109.17 |
| COCCNC(=O)c1ccc(-c2cc(C(=O)NC3CC3)cc(F)c2C)cc1 [UNC10225229A] | 73.51 |
| O=C(c1ccc(-c2cc(-c3c[nH]nc3-c3ccccn3)ccn2)cc1)N1CCOCC1 [UNC10225421A] | 76.85 |

Hey, can you go through the list below and give me AK for every item?
1. FC(F)(F)c1ccc(/C=C/c2cncnc2Nc2ccc3[nH]c(Cc4ccccc4)nc3c2)cc1 [UNC10225096A]
2. O=C(Nc1n[nH]c2nc(-c3ccco3)c(Br)cc12)c1ccc(CN2CCCC2)cc1 [SB-742352]
3. Cc1ccc(Nc2ccnc(Nc3ccc(C)c(F)c3)n2)cc1O [GW582868]
4. C[C@@H]1CCCCN1c1cc(-c2ccc3c(N)n[nH]c3c2)nc(N)n1 [GSK2258759]
5. COC(=O)Nc1nc2ccc(Oc3ccc(NC(=O)Nc4cc(C(F)(F)F)ccc4Cl)cc3)cc2[nH]1 [GW697465]
6. Cc1ccc(NC(=O)c2cccc(N3CCCCC3)c2)cc1-c1ccc(C(=O)NCC2CC2)cc1 [UNC10225021A]

1: 102.23; 2: 95.96; 3: 95.37; 4: 88.63; 5: 89.89; 6: 68.90

Hey, can you go through the list below and give me AK for every item?
1. Cc1nn2c(=O)cc(N3CCO[C@H](C)C3)nc2n1Cc1cccc(Cl)c1Cl [UNC10225190A]
2. COC(=O)Nc1nc2ccc(Oc3ccc(NC(=O)Nc4cc(F)ccc4F)cc3)cc2[nH]1 [GW701424]
3. CC(C)Nc1cc(-c2ccc3c(N)n[nH]c3c2)nc(N)n1 [GSK2221681]
4. Fc1cc(Cl)ccc1Nc1ccnc2cc(-c3ccc(CN4CCCCC4)o3)ccc12 [UNC10225220A]
5. Nc1ncnc2c1nc(-c1ccccc1)n2-c1ccccc1 [UNC10225340A]
6. COc1ccc(C)c(Nc2ccnc(Nc3ccc(-c4cnc[nH]4)cc3)n2)c1 [GW784041]

1. 79.35
2. 149.19
3. 98.58
4. 82.41
5. 115.76
6. 81.91

----------
Tested on: SH-SY5Y cells
protocol-text: AK (adenylate kinase) release ToxiLight cytotoxicity assay; further: reference of the scale not given here
cond: PKIS2 primary screening
Assignment: determine reported AK for the given compounds.
Numbers only.

| compound | AK |
| --- | --- |
| O=C(O)C(F)(F)F.O=c1[nH]ccc2nc(N[C@@H]3CCNC3)nc(Nc3cc(Cl)cc(Cl)c3)c12 [UNC10225257A] | 117.20 |
| CCn1c(-c2ccccc2)nc2cnccc21 [UNC10225407A] | 88.86 |
| COc1ccc(-c2oc3ncnc(N)c3c2-c2ccc(OC)cc2)cc1 [UNC10225431A] | 79.67 |
| Cc1c(Cn2ccn3c(=O)cc(N4CCOCC4)nc23)cccc1C(F)(F)F [UNC10243861A] | 106.43 |
| COc1ccc(CNC(=O)NC2CCN(c3ccnc(Nc4ccc(F)cc4)n3)CC2)cc1 [GSK1379788] | 114.99 |

Hey, can you go through the list below and give me AK for every item?
1. Cc1cccc(Nc2nc(N[C@H]3CCNC3)ncc2C(N)=O)c1.Cl [UNC10225356A]
2. COc1ccc(Nc2nccc(-c3cccc(NC(=O)c4cc5cc(F)ccc5[nH]4)c3)n2)cc1 [GSK1229782]
3. CNc1ncnc2[nH]ncc12 [UNC10243862A]

117.33
91.24
111.70

Consider the compound CN1C(=O)C(Nc2ccccc2)=C(c2ccccc2)C1=O [UNC10225242A] and give its measured AK.
287.85
